These data points were gathered from patent US7629318B2.

Numbered stars: 1 amine (or outer) side, 2 acyl side, 3 side chain; on linkers, the order of the positions; unused ones are H or OH. Square brackets hold non-standard residues; d marks the D form. Peptide text beside a SMILES is read from it. * marks the point of attachment. ξ: configuration not given here. Gly(1-amidinopiperidin-4-yl) = N=C(N)N1CCC([C@H](N)C(=O)O)CC1; X1 = CC(C)c1oc([C@H](CO)N[*:1])nc1C(=O)[*:2]; Pro(3R-Ph) = O=C(O)[C@H]1NCC[C@@H]1c1ccccc1; Tic = O=C(O)[C@@H]1Cc2ccccc2CN1; Cha = N[C@@H](CC1CCCCC1)C(=O)O; NMe(benzyl) = CN(Cc1ccccc1)*; ξDisc = O=C(O)C1NCc2ccccc21; Nle = CCCC[C@H](N)C(=O)O
Target or system Cathepsin D (EC 3.4.23.5 from bovine spleen) (Bos taurus): recorded Stability (Arbitrary units) Cath D 4 h listed per item.
measured-property: Stability (Arbitrary units) Cath D 4 h

- CSCC[C@H](NC(=O)C1c2ccccc2CN1C(=O)[C@H](CCCNC(=N)N)NC(=O)[C@H](CC1CCCCC1)NC(C)=O)C(=O)N1CC[C@H](c2ccccc2)[C@H]1C(=O)N[C@@H](CO)c1nc(C(=O)N(C)C)c(C(C)C)o1 (stereo partly drawn) [Compound P40-1] (Ac-[Cha]R[ξDisc]M[Pro(3R-Ph)][X1]-NMe2): 93
- CSCC[C@H](NC(=O)[C@@H]1Cc2ccccc2CN1C(=O)[C@@H](NC(=O)[C@H](CC1CCCCC1)NC(C)=O)C1CCN(C(=N)N)CC1)C(N)=O [Compound P67, Ac-Cha-Gpg-Tic-Met-NH2] (Ac-[Cha][Gly(1-amidinopiperidin-4-yl)][Tic]M-NH2): 113
- CSCC[C@H](NC(=O)[C@@H]1Cc2ccccc2CN1C(=O)[C@@H](NC(=O)[C@H](CC1CCCCC1)NC(C)=O)C1CCN(C(=N)N)CC1)C(=O)N1CC[C@H](c2ccccc2)[C@H]1C(N)=O [Compound P80, Ac-Cha-Gpg-Tic-Met-βPhProNH2] (Ac-[Cha][Gly(1-amidinopiperidin-4-yl)][Tic]M[Pro(3R-Ph)]-NH2): 84
- CCCC[C@H](NC(=O)C1c2ccccc2CN1C(=O)[C@H](CCCNC(=N)N)NC(=O)[C@H](CC1CCCCC1)NC(C)=O)C(=O)N(C)Cc1ccccc1 (stereo partly drawn) [Compound P72-1, Ac-Cha-Arg-Disc-Nle-N(Me)Bn] (Ac-[Cha]R[ξDisc][Nle]-{NMe(benzyl)}): 101
